Tested on: HT29 colon
Assay: NCI-60 one-dose screen, 48 h (100 = growth as untreated, 0 = no growth, -100 = all killed)
Conditions: 10 µM unless noted
Description: Growth inhibition of the HT29 human tumor cell line is measured as a screen for anti-cancer activity. Cells are grown in 96 well plates and exposed to the test compound for 48 hours. Compounds are tested at a single concentration, which is 10^-5 M for most compounds. The reported endpoint is percent growth (GI% or GIPRCNT), where numbers from 0 - 100% represent growth inhibition, and numbers from -100% - 0 represent cell death. For example, a value of 40 represents 60% growth inhibition. […]
This is part of a sample that, as a whole, favours compounds with a hit. Of some 83,000 tested, about 20% had one in any assay.
This listing pairs compounds with measured growth.
Provide the reading as a plain figure in %.

Known results for compounds:
Please indicate growth recorded for CN(C)c1ncnc2c1cnn2C
109

Please indicate growth recorded for Nc1nc(N)nc(N2CCCCC2)n1
98.2

Please indicate growth recorded for CCOC(=N)CC(=O)Nc1cccc(C)c1Cl
116

Please indicate growth recorded for CCCCCCCCCCCCCCCCOc1ccccc1NC(=O)CC(C)=O
97.9

New cases:
Please indicate growth recorded for COc1cc2c(c(OC)c1OC)-c1ccc(SC)c(=O)cc1[C@@H](NC1OC(CO)C(O)C(O)C1O)CC2 (stereo partly specified)
0.658

Please indicate growth recorded for NC(=S)c1c(N)n(C2OC(CO)C(O)C2O)c2ncnc(N)c12 (stereo unspecified)
5.09

###

test system: HCC-2998 colon; experiment: NCI-60 one-dose screen, 48 h (100 = growth as untreated, 0 = no growth, -100 = all killed); conditions: 10 µM unless noted
The panel holds about 83,000 compounds, 20% with a hit somewhere; the sample as a whole holds those more often.
Metric: growth (%)
Provide the reading as a plain figure in %.

Known results for compounds:
Please indicate growth recorded for Cc1ccc(S(=O)(=O)NC(=O)NCCSSCCNC(=O)NS(=O)(=O)c2ccc(C)cc2)cc1
108

Please indicate growth recorded for CN(C)c1ncnc2c1cnn2C
98

Please indicate growth recorded for CCCCN(C=S)CCCC
102

Please indicate growth recorded for O=S1(=O)c2ccccc2Oc2ccccc21
106

Please indicate growth recorded for O=C(O)Cc1ccc(Cl)cc1
108

New cases:
Please indicate growth recorded for O=[N+]([O-])c1c(Cl)ncnc1Cl
121

Please indicate growth recorded for OCCNc1ccccc1
105

Please indicate growth recorded for CC(C)C(C)(C)C(=O)C(C)(C)C(C)(C)C
104

Please indicate growth recorded for CC(=O)Nc1ccc(C(=O)c2ccc(S(=O)(=O)Nc3ccccc3)cc2)cc1
-97.1

Please indicate growth recorded for NNC(=O)c1ccccc1N
112

Please indicate growth recorded for Clc1ccc(C(SCc2ccccc2)SCc2ccccc2)cc1
120

Please indicate growth recorded for O=C(CCCl)OCCOc1ccccc1
108

Please indicate growth recorded for O=C1C=C[C@H](O)[C@@]2(CO)O[C@@H]12
104

###

tested on: K-562 leukemia; test: NCI-60 one-dose screen, 48 h; conditions: 10 µM unless noted
About 83,000 compounds went through this panel and 20% of them were active in at least one assay; those are over-represented in the sample as a whole. Active and inactive are the calls of the source. The calls were made as follows: active = growth percent below 10; inactive = the rest.
Outcome (select one): true = active, false = inactive

Dear colleague, could you share the recorded outcome for O=C(Nc1c(Cl)cc(Cl)cc1Cl)ON=C1CCCCC1 when you have a moment?
false

New cases:
Dear colleague, could you share the recorded outcome for CC(C)N(C(=O)c1ccccc1)C(C)C when you have a moment?
false

Dear colleague, could you share the recorded outcome for CCC(C)C1CCC(O)CC1 (configuration not stated) when you have a moment?
false

Dear colleague, could you share the recorded outcome for CSCC[C@@H]1C(=O)N(C)[C@H](C(C)(C)C)N1C(=O)c1ccccc1 when you have a moment?
false

Dear colleague, could you share the recorded outcome for CCOc1ccc2c(c1)c(C)cc(C)[n+]2CC when you have a moment?
false

###

tested on: NCI-H460 lung; experiment: NCI-60 one-dose screen, 48 h (100 = growth as untreated, 0 = no growth, -100 = all killed); conditions: 10 µM unless noted
Compounds without any hit were thinned out: in the full panel of roughly 83,000, 20% have a hit.
This listing pairs compounds with measured growth.
Provide the reading as a plain figure in %.

Known results for compounds:
Please indicate growth recorded for CCN(CC)CCN1CNC(=S)NC1
114

Please indicate growth recorded for Nc1ccn(C2CC(N)C(CO)O2)c(=O)n1 (stereo not drawn)
34.5

New cases:
Please indicate growth recorded for CC1CCC(C)(C)c2ccccc21 (stereo not drawn)
109

Please indicate growth recorded for NC(=O)OCCO
110

###

tested on: RXF 393 renal; experiment: NCI-60 one-dose screen, 48 h (100 = growth as untreated, 0 = no growth, -100 = all killed); details: 10 µM unless noted
About 83,000 compounds went through this panel and 20% of them were active in at least one assay; those are over-represented in the sample as a whole.
This listing pairs molecules with measured growth.
Provide the reading as a plain figure in %.

Known results for molecules:
Please indicate growth recorded for Nc1cc(F)ccc1[N+](=O)[O-]
94.3

Please indicate growth recorded for Nc1ncnc(Nc2ccc(C(F)(F)F)cc2)n1
113

Please indicate growth recorded for Nc1ccn(C2CC(N)C(CO)O2)c(=O)n1 (configuration not stated)
128

Please indicate growth recorded for CCOP(=O)(NC(c1ccccc1)c1ccccc1)OCC
113

Please indicate growth recorded for Cc1cc(NC(=O)c2ccccc2)c(Cl)cc1N
124

New cases:
Please indicate growth recorded for O=C(CCCl)OCCOc1ccccc1
112

Please indicate growth recorded for Cc1ccc(S(=O)(=O)NC(=O)NCCSSCCNC(=O)NS(=O)(=O)c2ccc(C)cc2)cc1
102

Please indicate growth recorded for CCCCCC(=O)OCCC1CCCCC1
104

Please indicate growth recorded for O=[N+]([O-])c1ccc(-c2nc(N(CCO)CCO)c3ccccc3n2)o1
-87.1

Please indicate growth recorded for O=C(NCCc1ccccc1)/C(=C\c1ccc(Cl)cc1Cl)NC(=O)c1ccccc1
92.8

Please indicate growth recorded for CCOc1ccc(C(=O)NCC(C)C)cc1
108

Please indicate growth recorded for CCCCCCCCCCCCCCCCOc1ccccc1NC(=O)CC(C)=O
107

###

This listing pairs compounds with measured growth.
tested on: HCT-116 colon; test: NCI-60 one-dose screen, 48 h (100 = growth as untreated, 0 = no growth, -100 = all killed); settings: 10 µM unless noted
The panel holds about 83,000 compounds, 20% with a hit somewhere; the sample as a whole holds those more often.
Provide the reading as a plain figure in %.

Known results for compounds:
Please indicate growth recorded for CN1C(=O)NC(c2ccc(Cl)cc2)(c2ccc(Cl)cc2)C1=O
88.2

Please indicate growth recorded for O=S(Cc1ccccc1)/C(=C/NC(=S)Nc1cc(Cl)ccc1Cl)c1ccccc1 (configuration not stated)
109

Please indicate growth recorded for CSc1cnc2ccccc2n1
99.2

New cases:
Please indicate growth recorded for C=C1SC(=Nc2c(C)cccc2C)N(c2nc(Cl)nc(Cl)n2)C12CCCCC2
93.7

Please indicate growth recorded for COC1OC(C(O)C(O)CO)C(O)C(O)C1O (configuration not stated)
90.5

Please indicate growth recorded for CCc1ccccc1C(=O)N(CC)CC
92.9

Please indicate growth recorded for Nc1cccc2cccc(O)c12
78.8

Please indicate growth recorded for O=C(O)c1ccccc1Cc1ccc2c(c1)CCCC2
104

Please indicate growth recorded for CN(C)c1ccc2c(N(C)C)cc(N(C)C)nc2c1
48.1

Please indicate growth recorded for O=c1cc(C(F)(F)F)[nH]c(=S)[nH]1
112

Please indicate growth recorded for Oc1cc(O)c2c(c1)O[C@H](c1ccc(O)c(O)c1)[C@@H](O)C2
109

Please indicate growth recorded for COC1CC(OC(=O)c2ccc([N+](=O)[O-])cc2)C(COC(=O)c2ccc([N+](=O)[O-])cc2)O1 (configuration not stated)
105

###

test system: MALME-3M melanoma; assay: NCI-60 one-dose screen, 48 h (100 = growth as untreated, 0 = no growth, -100 = all killed); conditions: 10 µM unless noted
Compounds without any hit were thinned out: in the full panel of roughly 83,000, 20% have a hit.
This listing pairs molecules with measured growth.
Provide the reading as a plain figure in %.

Known results for molecules:
Look up and report measured growth (MALME-3M melanoma) for the following molecule: Clc1ccc(/C=C/c2ccccn2)cc1
108

Look up and report measured growth (MALME-3M melanoma) for the following molecule: Cc1cc2c(C(C)C)c(O)c(O)c(C=Nc3ccccc3[N+](=O)[O-])c2c(O)c1-c1c(C)cc2c(C(C)C)c(O)c(O)c(C=Nc3ccccc3[N+](=O)[O-])c2c1O
93.5

Look up and report measured growth (MALME-3M melanoma) for the following molecule: CC(CCC#N)(CCC#N)C(=O)c1ccccc1
114

New cases:
Look up and report measured growth (MALME-3M melanoma) for the following molecule: CC(=O)C1C(=O)C(=O)N(c2ccc(Cl)c(Cl)c2)C1=O (stereo unspecified)
92.4

Look up and report measured growth (MALME-3M melanoma) for the following molecule: CCCCn1cnc2c(=O)[nH]cnc21
158

Look up and report measured growth (MALME-3M melanoma) for the following molecule: O=C1C=Cc2ccccc2/C1=C/c1[nH]c(=O)[nH]c1O
23.5

Look up and report measured growth (MALME-3M melanoma) for the following molecule: Nc1ccccc1SC1CC(=O)N(c2ccc(Cl)c(Cl)c2)C1=O (stereo unspecified)
177

Look up and report measured growth (MALME-3M melanoma) for the following molecule: CCOC(=O)c1cc(Cl)c(O)c(Cl)c1
114

Look up and report measured growth (MALME-3M melanoma) for the following molecule: Nc1ccc(F)cc1F
111

Look up and report measured growth (MALME-3M melanoma) for the following molecule: O=CNCCc1ccccc1
130

Look up and report measured growth (MALME-3M melanoma) for the following molecule: C/C(=N\N=C(/C)c1cccc([N+](=O)[O-])c1)c1cccc([N+](=O)[O-])c1
85
